# testSystem: T1, IL-23 p40-p19-His (human)
# T1 construct: Single-chain fusion coated on the IL-23 ELISA plates; also called p40:p19-6×HIS
# T1 chain: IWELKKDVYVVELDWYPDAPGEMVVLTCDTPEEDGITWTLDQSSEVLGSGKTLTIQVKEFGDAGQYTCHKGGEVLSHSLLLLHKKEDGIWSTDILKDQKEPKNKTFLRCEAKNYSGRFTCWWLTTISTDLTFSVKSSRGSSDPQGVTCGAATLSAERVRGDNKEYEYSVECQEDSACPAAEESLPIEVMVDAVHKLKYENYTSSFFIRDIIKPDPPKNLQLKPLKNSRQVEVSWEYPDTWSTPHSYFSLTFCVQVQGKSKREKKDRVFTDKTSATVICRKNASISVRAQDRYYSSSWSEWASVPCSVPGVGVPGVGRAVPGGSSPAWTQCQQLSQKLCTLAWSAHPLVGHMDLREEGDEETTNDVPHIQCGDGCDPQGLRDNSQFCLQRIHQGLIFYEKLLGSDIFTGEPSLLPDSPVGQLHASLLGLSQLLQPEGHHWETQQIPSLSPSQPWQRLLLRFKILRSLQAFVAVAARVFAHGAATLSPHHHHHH
# protocolNotes: ELISA on IL-23 p40-p19-His
reportedEndpoint: binding result

22H8 chimeric mAb (antibody, V domains shown, Rabbit/human chimeric IgG (human IgG1, kappa); HEK293; also called mAb 22H8) VH: QSLEESGGRLVTPGTPLTLTCTVSGFSLSTYTMNWVRQSPGKGLEWIGAISYDGGTAYANWAKGRFTISKTSTTVDLQIASPTTEDTATYFCARGFYVYAYIGDAFDPWGPGTLVTVSS VL: AVLTQTPSPVSATVGGTVTIKCQSSQTVYKNNLLSWYQQKPGQPPKLLIYLASTLASGVPSRFSGSGSGTQFTLTISGVQCDDAATYYCLGGYDDDADTAFGGGTEVVVVR ... binds
